Assay: protein stability index of a GFP-peptide fusion (GPS, HEK-293T) (PSI 1-6); higher = more stable;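 also: 24-mer peptide tiles fused after GFP, lentivirally expressed, FACS-sorted into six equal bins by GFP/DsRed ratio, decoded by Illumina sequencing, PSI is the read-weighted mean bin number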
Conditions: treatment: DMSO; c terminus: a fixed tail appended
recorded.endpoint: protein stability index
I only need the number, thanks.

Take a look at these entries with their results.
{"sequence.input": "RQERVSLYPFQIHSIALSTFASLI [CDS1]", "protein stability index": 3.04}
{"sequence.input": "SGGITHDTFQKELMCFDPDTDKWI [KLHL13]", "protein stability index": 3.94}
{"sequence.input": "LLRAKIEVEKLKAIRLRHDLPEYN [RAD54B]", "protein stability index": 2.69}
{"sequence.input": "TCEDDEDEELGGSSRVPVGGGPEA [ZBTB22]", "protein stability index": 5.49}

INPUT: Any idea what its protein stability index is? The sequence is KSKAYTVVGTPCYISPELCEGKPY [NEK8]
OUTPUT: 2.83

INPUT: Any idea what its protein stability index is? The sequence is LPILGHRDYKIQASRTWCFYNTED [PTGFR]
OUTPUT: 2.41

INPUT: Need protein stability index of TPYLKETLNSIWNVEDHINPKLPN [POMT2] , thanks.
OUTPUT: 3.37

INPUT: Need protein stability index of KDYYPINESLASLPLRVSFCPLSL [CLPTM1] , thanks.
OUTPUT: 2.16

INPUT: Would you mind telling me what protein stability index value was observed for RIIDKPRVIEVLPRGATAAVLAPD [SEPHS2] ?
OUTPUT: 3.88

---

Assay: protein stability index of a GFP-peptide fusion (GPS, HEK-293T) (PSI 1-6); higher = more stable
Conditions: treatment: MLN4924 1 uM, 8 h; c terminus: a fixed tail appended
The reader will find reported protein stability index values listed item by item below.
Respond numerically, and do not add a unit to the figure.

Solved entries:
{"sequence.input": "IAFDGVVGSGGRRDSTARRPRPQG [RTN2]", "protein stability index": 4.26}
{"sequence.input": "LTEDYFPSVPDNAELVLLTLGQAW [DFFB]", "protein stability index": 2.34}
{"sequence.input": "GILTFLAVLGRYVPGLLLSYLMLV [RETREG3]", "protein stability index": 2.95}
{"sequence.input": "QSSFNSLQRVPSYDSFDSEDYPAA [ETS1]", "protein stability index": 4.93}
{"sequence.input": "PCIPPGFRNLVADRVLNYTSWSQH [SPAG8]", "protein stability index": 2.37}

INPUT: // query protein stability index value for entry AEEYDEKTSELLVRKWRVKSALGA [DPCD]
OUTPUT: 4.04

INPUT: # query: protein stability index of entry EPAGGGRSREARSRLLLLEQELKT [SMAD6]
OUTPUT: 4.87

INPUT: What value of protein stability index has been reported for the following sequence? KITKVMDVRLDREHRVAGIFPRLS [CLPTM1]
OUTPUT: 2.7

INPUT: Given the sequence DLRHLRAVPTDEARAFAEKNNLSF [RAB11B] , what is its reported protein stability index?
OUTPUT: 3.54

INPUT: Could you tell me which protein stability index is on file for HLNAIRGLPGSFIKEVQKGGPADL [PDZK1] ?
OUTPUT: 3.99

INPUT: Dear colleague, I am looking for the recorded protein stability index of the following sequence: LEQIMESVKSKIGELEDESLNRAC [CEP70]
OUTPUT: 4.46

INPUT: I have this sequence here, SYQDWQQNLYFNCSSPGVQACSLP [TSPAN10] , and I need its recorded protein stability index.
OUTPUT: 2.62

INPUT: What does the data say about its protein stability index? Entry: AFLGPDEAFALPDSLLVVLDMDEG [SPSB4]
OUTPUT: 2.6

Each recorded value in this set is attributed to the supplement of paper PMC10567573.
